Origin of the recorded values: patent US20090215894A1

- Subject of test: Human sEH Cterm-EH activity (Homo sapiens)
- Construct: use of a truncated enzyme from crude extract versus purified full-length human sEH; made in house; host or cells: baculovirus expression system (insect cells)
- Method notes: Cterm-EH inhibition IC50 with 4-nitrophenyl-trans-2,3-epoxy-3-phenylpropyl carbonate
- Assay type: biochemical
- Measurement conditions: substrate 50 μM, 5 min preincubation, 30° C.; read-out: IC50
Form field: IC50 (one value per entry).
Endpoint name: IC50 (µM)

| Compound | Censoring sign | Experimental value |
| --- | --- | --- |
| CCCCCCCCOP(=O)(OCCCCCCCC)c1ccccc1 [Compound 27, Dioctyl-phenyl-phosphonate] | = | 92 |
| CCCCCCCCCCCCP(=O)(O)O | > | 100 |
| C[C@]12CC[C@@H]3c4ccc(OS(=O)(=O)O)cc4CC[C@H]3[C@@H]1CCC2=O [Compound 16, Estrone-3-sulfate] | > | 100 |
| CCCCCCC(C/C=C\CCCCCCCC(=O)O)OS(=O)(=O)O (stereo not drawn) [Compound 4, 12-Sulfonoxy-cis-9-octadecenoic acid] | > | 100 |
| O=P(O)(OCc1ccccc1)OCc1ccccc1 [Compound 28, Di-benzyl-phosphate] | > | 100 |
| CCCCCCCCCC(CCCCCCCC)OS(=O)(=O)O (centres unmarked) [Compound 3, 9-Octadecanyl-sulfate] | = | 21 |
| CCCCCCC(C/C=C/CCCCCCCC(=O)O)OS(=O)(=O)O (stereo not drawn) [Compound 5, 12-Sulfonoxy-trans-9-octadecenoic acid] | = | 16 |
| CCCCCCCCC(CCCCCCCCC(=O)O)OS(=O)(=O)O (centres unmarked) | = | 28 |

* * *

- Subject of test: truncated human sEH (Homo sapiens, UniProt P34913)
- Construct: C-terminal region (Mel^237-Met^554) of human sEH was amplified by PCR; made in house; host or cells: baculovirus (pFastBac1) in high-5 Trichoplusia ni cells; 10,000 g supernatant used as crude extract
- Sequence (P34913 237-555 limits assumed): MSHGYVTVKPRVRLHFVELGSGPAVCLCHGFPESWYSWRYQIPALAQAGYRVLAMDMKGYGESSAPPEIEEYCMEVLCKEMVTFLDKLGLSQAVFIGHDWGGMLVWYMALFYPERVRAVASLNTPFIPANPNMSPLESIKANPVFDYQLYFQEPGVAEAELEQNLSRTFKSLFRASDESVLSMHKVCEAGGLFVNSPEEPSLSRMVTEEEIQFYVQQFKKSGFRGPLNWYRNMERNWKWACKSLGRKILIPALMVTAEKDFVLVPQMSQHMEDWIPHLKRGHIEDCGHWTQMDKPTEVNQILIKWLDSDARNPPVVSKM
- Method notes: EH activity inhibition, N-terminally truncated human sEH
- Assay type: biochemical
Quick rule: inhibition at 100 µM of at least 70% means YES, below that means NO.

| Compound | Class label |
| --- | --- |
| CCCCCCC(C/C=C\CCCCCCCC(=O)O)OS(=O)(=O)O (stereo not drawn) [Compound 4, 12-Sulfonoxy-cis-9-octadecenoic acid] | NO |
| CCCCCCCCCC(CCCCCCCC)OS(=O)(=O)O (centres unmarked) [Compound 3, 9-Octadecanyl-sulfate] | NO |
| CCCCCCC(C/C=C/CCCCCCCC(=O)O)OS(=O)(=O)O (stereo not drawn) [Compound 5, 12-Sulfonoxy-trans-9-octadecenoic acid] | NO |
| CCCCCCCCC(CCCCCCCCC(=O)O)OS(=O)(=O)O (centres unmarked) | YES |
| CCCCCCCCC(OS(=O)(=O)O)C(O)CCCCCCCC(=O)O (centres unmarked) | NO |
